test system: RS4; 11 with G101V mutation; test: In vitro anti-proliferation assay (ATPlite luminescence) in BCL-2-dependent ALL cell line RS4;11 with G101V mutation; assay type: cell-based; conditions: cellular anti-proliferative IC50, about 72 hours, medium with 10% FBS, ATPlite; read-out: RS411-G101V IC50
quantity.kind: IC50

[[record]]
molecule = "Cc1ccccc1[C@@H]1CN(CC2CCOCC2)CCN1C1CC2(CCN(c3ccc(C(=O)NS(=O)(=O)c4cc5c(c([N+](=O)[O-])c4)N[C@H](C4CCOCC4)CO5)c(N4c5cc6cc[nH]c6nc5O[C@H]5COCC[C@@H]54)c3)CC2)C1"
quantity_kind = "IC50"
recorded_result = "40.6 nM"

[[record]]
molecule = "CC(C)Oc1ccccc1[C@H]1CN(Cc2ccc(F)c(F)c2)CCN1C1CC2(CCN(c3ccc(C(=O)NS(=O)(=O)c4ccc(NCC5CCOCC5)c([N+](=O)[O-])c4)c(N4c5cc6cc[nH]c6nc5O[C@H]5COCC[C@@H]54)c3)CC2)C1"
quantity_kind = "IC50"
recorded_result = "112 nM"

[[record]]
molecule = "COc1c(N2CCOC[C@@H]2C)ncc2c1COC[C@@H]2N1CCN(C2CC3(CCN(c4ccc(C(=O)NS(=O)(=O)c5cc6c(c([N+](=O)[O-])c5)N[C@H](C5CCOCC5)CO6)c(N5c6cc7cc[nH]c7nc6O[C@H]6COCC[C@@H]65)c4)CC3)C2)[C@H](c2ccccc2OC(C)C)C1"
quantity_kind = "IC50"
recorded_result = "26.9 nM"

[[record]]
molecule = "CC(C)Oc1ccccc1[C@@H]1CN([C@@H]2CCOc3cc(F)c(F)cc32)CCN1C1CC2(CCN(c3ccc(C(=O)NS(=O)(=O)c4cc5c(c([N+](=O)[O-])c4)N[C@H](C4CCOCC4)CO5)c(N4c5cc6cc[nH]c6nc5O[C@H]5COCC[C@@H]54)c3)CC2)C1"
quantity_kind = "IC50"
recorded_result = "87.2 nM"

[[record]]
molecule = "COc1cc(CN2CCN(C3CC4(CCN(c5ccc(C(=O)NS(=O)(=O)c6ccc(NCC7CCC(C)(O)CC7)c([N+](=O)[O-])c6)c(N6c7cc8cc[nH]c8nc7O[C@H]7COCC[C@@H]76)c5)CC4)C3)[C@@H](c3ccccc3OC(C)C)C2)cc2cc(C)oc12 (stereo partly drawn)"
quantity_kind = "IC50"
recorded_result = "33.9 nM"

[[record]]
molecule = "CC(C)Oc1ccccc1[C@H]1CN(Cc2ccc(N3CCOC[C@H]3C)cc2)CCN1C1CC2(CCN(c3ccc(C(=O)NS(=O)(=O)c4ccc(NCC5CCC(C)(O)CC5)c([N+](=O)[O-])c4)c(N4c5cc6cc[nH]c6nc5O[C@H]5COCC[C@@H]54)c3)CC2)C1 (stereo partly drawn)"
quantity_kind = "IC50"
recorded_result = "28.7 nM"

[[record]]
molecule = "Cc1ccccc1[C@@H]1CN(C2CCC(C)(O)CC2)CCN1C1CC2(CCN(c3ccc(C(=O)NS(=O)(=O)c4cc5c(c([N+](=O)[O-])c4)N[C@H](C4CCOCC4)CO5)c(N4c5cc6cc[nH]c6nc5O[C@H]5COCC[C@@H]54)c3)CC2)C1 (stereo partly drawn) [Example 200]"
quantity_kind = "IC50"
recorded_result = "82.6 nM"

[[record]]
molecule = "Cc1ccccc1[C@@H]1CN(Cc2cnc(N3CCOCC3)c3c2C(C)(C)CCO3)CCN1C1CC2(CCN(c3ccc(C(=O)NS(=O)(=O)c4cc5c(c([N+](=O)[O-])c4)N[C@H](C4CCOCC4)CO5)c(N4c5cc6cc[nH]c6nc5O[C@H]5COCC[C@@H]54)c3)CC2)C1"
quantity_kind = "IC50"
recorded_result = "2.41 nM"

[[record]]
molecule = "COc1ccc(CN2CCN(C3CC4(CCN(c5ccc(C(=O)NS(=O)(=O)c6ccc(NCC7CCC(C)(O)CC7)c([N+](=O)[O-])c6)c(N6c7cc8cc[nH]c8nc7O[C@H]7COCC[C@@H]76)c5)CC4)C3)[C@@H](c3ccccc3OC(C)C)C2)nc1 (stereo partly drawn)"
quantity_kind = "IC50"
recorded_result = "35.1 nM"

